experiment: Cytotoxicity against human A549 cells assessed as reduction in cell viability by MTT assay; type: cell-based
Measure Name: CC50

{"Chemical Structure": "C[C@H]1[C@H](C)CC[C@]2(C(=O)Nc3ccccc3)CC[C@]3(C)C(=CC[C@@H]4[C@@]5(C)CC[C@@H](O[C@@H]6O[C@H](CO)[C@@H](O[C@@H]7O[C@@H](C)[C@H](O)[C@@H](O)[C@H]7O)[C@H](O)[C@H]6O[C@@H]6O[C@@H](C)[C@H](O)[C@@H](O)[C@H]6O)C(C)(C)[C@@H]5CC[C@]43C)[C@H]12", "Measure Name": "CC50", "Reported Measurement": "> 1000 µM"}
{"Chemical Structure": "COC(=O)[C@]12CC[C@@H](C)[C@H](C)[C@H]1C1=CC[C@@H]3[C@@]4(C)CC[C@@H](O[C@@H]5O[C@H](CO)[C@@H](O[C@@H]6O[C@@H](C)[C@H](O)[C@@H](O)[C@H]6O)[C@H](O)[C@H]5O[C@@H]5O[C@@H](C)[C@H](O)[C@@H](O)[C@H]5O)C(C)(C)[C@@H]4CC[C@@]3(C)[C@]1(C)CC2", "Measure Name": "CC50", "Reported Measurement": "363 µM"}
{"Chemical Structure": "CCCCCOC(=O)[C@]12CC[C@@H](C)[C@H](C)[C@H]1C1=CC[C@@H]3[C@@]4(C)CC[C@@H](O[C@@H]5O[C@H](CO)[C@@H](O[C@@H]6O[C@@H](C)[C@H](O)[C@@H](O)[C@H]6O)[C@H](O)[C@H]5O[C@@H]5O[C@@H](C)[C@H](O)[C@@H](O)[C@H]5O)C(C)(C)[C@@H]4CC[C@@]3(C)[C@]1(C)CC2", "Measure Name": "CC50", "Reported Measurement": "489 µM"}

// moving on: another record for CC50
Exercise: Returns the measured CC50 for the input molecule. Input: `NC(=O)c1ncn([C@@H]2O[C@H](CO)[C@@H](O)[C@H]2O)n1`
Key: 130 µM

---

IC50 listing for selected molecules.
test system: Influenza A virus; assay type: functional, organism-based; details: A/Duck/Guangdong/212/2004(H5N1), A549

Guide cases for IC50, answers given:
{"Chemical Structure": "COC(=O)[C@]12CC[C@@H](C)[C@H](C)[C@H]1C1=CC[C@@H]3[C@@]4(C)CC[C@@H](O[C@@H]5O[C@H](CO)[C@@H](O[C@@H]6O[C@@H](C)[C@H](O)[C@@H](O)[C@H]6O)[C@H](O)[C@H]5O[C@@H]5O[C@@H](C)[C@H](O)[C@@H](O)[C@H]5O)C(C)(C)[C@@H]4CC[C@@]3(C)[C@]1(C)CC2", "Assayed System": "Influenza A virus", "IC50": "16.4 µM"}
{"Chemical Structure": "C[C@H]1[C@H](C)CC[C@]2(C(=O)NC3CCCC3)CC[C@]3(C)C(=CC[C@@H]4[C@@]5(C)CC[C@@H](O[C@@H]6O[C@H](CO)[C@@H](O[C@@H]7O[C@@H](C)[C@H](O)[C@@H](O)[C@H]7O)[C@H](O)[C@H]6O[C@@H]6O[C@@H](C)[C@H](O)[C@@H](O)[C@H]6O)C(C)(C)[C@@H]5CC[C@]43C)[C@H]12", "Assayed System": "Influenza A virus", "IC50": "18.5 µM"}
{"Chemical Structure": "NC(=O)c1ncn([C@@H]2O[C@H](CO)[C@@H](O)[C@H]2O)n1", "Assayed System": "Influenza A virus", "IC50": "47.2 µM"}
{"Chemical Structure": "CCOC(=O)[C@]12CC[C@@H](C)[C@H](C)[C@H]1C1=CC[C@@H]3[C@@]4(C)CC[C@@H](O[C@@H]5O[C@H](CO)[C@@H](O[C@@H]6O[C@@H](C)[C@H](O)[C@@H](O)[C@H]6O)[C@H](O)[C@H]5O[C@@H]5O[C@@H](C)[C@H](O)[C@@H](O)[C@H]5O)C(C)(C)[C@@H]4CC[C@@]3(C)[C@]1(C)CC2", "Assayed System": "Influenza A virus", "IC50": "18.1 µM"}
{"Chemical Structure": "CCCCCOC(=O)[C@]12CC[C@@H](C)[C@H](C)[C@H]1C1=CC[C@@H]3[C@@]4(C)CC[C@@H](O[C@@H]5O[C@H](CO)[C@@H](O[C@@H]6O[C@@H](C)[C@H](O)[C@@H](O)[C@H]6O)[C@H](O)[C@H]5O[C@@H]5O[C@@H](C)[C@H](O)[C@@H](O)[C@H]5O)C(C)(C)[C@@H]4CC[C@@]3(C)[C@]1(C)CC2", "Assayed System": "Influenza A virus", "IC50": "29.3 µM"}
{"Chemical Structure": "CNC(=O)[C@]12CC[C@@H](C)[C@H](C)[C@H]1C1=CC[C@@H]3[C@@]4(C)CC[C@@H](O[C@@H]5O[C@H](CO)[C@@H](O[C@@H]6O[C@@H](C)[C@H](O)[C@@H](O)[C@H]6O)[C@H](O)[C@H]5O[C@@H]5O[C@@H](C)[C@H](O)[C@@H](O)[C@H]5O)C(C)(C)[C@@H]4CC[C@@]3(C)[C@]1(C)CC2", "Assayed System": "Influenza A virus", "IC50": "12.2 µM"}

Exercise: Returns the measured IC50 for the input molecule. Input: `C[C@H]1[C@H](C)CC[C@]2(C(=O)Nc3ccccc3)CC[C@]3(C)C(=CC[C@@H]4[C@@]5(C)CC[C@@H](O[C@@H]6O[C@H](CO)[C@@H](O[C@@H]7O[C@@H](C)[C@H](O)[C@@H](O)[C@H]7O)[C@H](O)[C@H]6O[C@@H]6O[C@@H](C)[C@H](O)[C@@H](O)[C@H]6O)C(C)(C)[C@@H]5CC[C@]43C)[C@H]12`
Key: 33.8 µM

Exercise: Returns the measured IC50 for the input molecule. Input: `C[C@H]1[C@H](C)CC[C@]2(C(=O)O)CC[C@]3(C)C(=CC[C@@H]4[C@@]5(C)CC[C@@H](O[C@@H]6O[C@H](CO)[C@@H](O[C@@H]7O[C@@H](C)[C@H](O)[C@@H](O)[C@H]7O)[C@H](O)[C@H]6O[C@@H]6O[C@@H](C)[C@H](O)[C@@H](O)[C@H]6O)C(C)(C)[C@@H]5CC[C@]43C)[C@H]12`
Key: 48.7 µM

Exercise: Returns the measured IC50 for the input molecule. Input: `C[C@H]1[C@H](C)CC[C@]2(C(=O)OC3CCCC3)CC[C@]3(C)C(=CC[C@@H]4[C@@]5(C)CC[C@@H](O[C@@H]6O[C@H](CO)[C@@H](O[C@@H]7O[C@@H](C)[C@H](O)[C@@H](O)[C@H]7O)[C@H](O)[C@H]6O[C@@H]6O[C@@H](C)[C@H](O)[C@@H](O)[C@H]6O)C(C)(C)[C@@H]5CC[C@]43C)[C@H]12`
Key: 40.5 µM

---

tested on: Influenza A virus; type: functional, organism-based; conditions: A/Duck/Guangdong/212/2004(H5N1), A549
pIC50: −log10 of the molar value.
pIC50 listing for selected compounds.

Guide cases for pIC50, answers given:
{"Chemical Structure": "C[C@H]1[C@H](C)CC[C@]2(C(=O)OCc3ccccc3)CC[C@]3(C)C(=CC[C@@H]4[C@@]5(C)CC[C@@H](O[C@@H]6O[C@H](CO)[C@@H](O[C@@H]7O[C@@H](C)[C@H](O)[C@@H](O)[C@H]7O)[C@H](O)[C@H]6O[C@@H]6O[C@@H](C)[C@H](O)[C@@H](O)[C@H]6O)C(C)(C)[C@@H]5CC[C@]43C)[C@H]12", "Assayed System": "Influenza A virus", "pIC50": "< 4.30"}
{"Chemical Structure": "C[C@H]1[C@H](C)CC[C@]2(C(=O)N(C)C)CC[C@]3(C)C(=CC[C@@H]4[C@@]5(C)CC[C@@H](O[C@@H]6O[C@H](CO)[C@@H](O[C@@H]7O[C@@H](C)[C@H](O)[C@@H](O)[C@H]7O)[C@H](O)[C@H]6O[C@@H]6O[C@@H](C)[C@H](O)[C@@H](O)[C@H]6O)C(C)(C)[C@@H]5CC[C@]43C)[C@H]12", "Assayed System": "Influenza A virus", "pIC50": 5.07}

// moving on: another record for pIC50
Exercise: Returns the measured pIC50 for the input compound. Input: `C[C@H]1[C@H](C)CC[C@]2(C(=O)NCc3ccccc3)CC[C@]3(C)C(=CC[C@@H]4[C@@]5(C)CC[C@@H](O[C@@H]6O[C@H](CO)[C@@H](O[C@@H]7O[C@@H](C)[C@H](O)[C@@H](O)[C@H]7O)[C@H](O)[C@H]6O[C@@H]6O[C@@H](C)[C@H](O)[C@@H](O)[C@H]6O)C(C)(C)[C@@H]5CC[C@]43C)[C@H]12`
Key: < 4.30
